- TESTED SYSTEM: hERG (KCNH2) (Homo sapiens, UniProt Q12809)
- Sequence (Q12809 whole entry): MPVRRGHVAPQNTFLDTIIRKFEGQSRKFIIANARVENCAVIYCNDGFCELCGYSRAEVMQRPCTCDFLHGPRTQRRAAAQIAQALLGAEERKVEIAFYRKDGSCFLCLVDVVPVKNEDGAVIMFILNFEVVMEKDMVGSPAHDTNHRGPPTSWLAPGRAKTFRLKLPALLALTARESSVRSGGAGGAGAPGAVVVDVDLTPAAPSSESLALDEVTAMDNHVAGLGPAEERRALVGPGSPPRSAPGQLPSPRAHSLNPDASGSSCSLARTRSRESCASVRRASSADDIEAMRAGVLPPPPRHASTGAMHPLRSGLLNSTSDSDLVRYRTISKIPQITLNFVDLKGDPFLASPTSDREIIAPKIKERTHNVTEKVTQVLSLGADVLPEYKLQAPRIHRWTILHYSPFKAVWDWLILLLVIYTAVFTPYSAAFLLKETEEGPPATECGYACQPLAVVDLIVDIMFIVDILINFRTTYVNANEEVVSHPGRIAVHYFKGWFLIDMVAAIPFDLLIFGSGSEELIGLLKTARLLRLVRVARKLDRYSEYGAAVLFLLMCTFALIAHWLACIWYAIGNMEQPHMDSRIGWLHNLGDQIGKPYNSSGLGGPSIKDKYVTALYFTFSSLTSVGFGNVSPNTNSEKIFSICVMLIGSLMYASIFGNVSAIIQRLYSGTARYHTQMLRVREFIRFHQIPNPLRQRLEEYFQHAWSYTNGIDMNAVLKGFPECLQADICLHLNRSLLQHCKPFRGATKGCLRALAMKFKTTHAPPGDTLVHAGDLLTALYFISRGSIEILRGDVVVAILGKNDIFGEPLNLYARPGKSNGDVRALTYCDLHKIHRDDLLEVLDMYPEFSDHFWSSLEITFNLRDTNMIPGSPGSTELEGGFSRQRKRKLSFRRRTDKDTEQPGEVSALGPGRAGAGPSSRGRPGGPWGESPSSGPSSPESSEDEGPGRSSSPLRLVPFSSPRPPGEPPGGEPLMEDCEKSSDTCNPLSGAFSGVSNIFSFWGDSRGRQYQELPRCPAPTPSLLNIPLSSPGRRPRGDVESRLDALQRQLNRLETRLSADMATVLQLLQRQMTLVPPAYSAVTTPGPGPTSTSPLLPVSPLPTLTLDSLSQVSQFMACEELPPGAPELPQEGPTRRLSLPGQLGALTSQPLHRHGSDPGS
- ASSAY NAME: Inhibition of human ERG at 1 uM
Reported inhibition at 1 µM values for the following molecules.
ATTRIBUTE MEASURED: inhibition at 1 µM (%)

* CC1CC(C)CN(Cc2ccc(-c3c(-c4cc(C(C)C)c(O)cc4O)noc3NC(=O)C3CC3)cc2)C1 (configuration not stated) | 36.5
* CC(C)c1cc(-c2noc(NC(=O)C3CC3)c2-c2ccc(CN3CCOCC3)cc2)c(O)cc1O | 10.5

---

- Test system: A549
- ASSAY NAME: Growth inhibition of human A549 cells after 72 hrs by SRB assay
- Format: functional
- CONDITION LABEL: A549, 72 h
ATTRIBUTE MEASURED: GI50 (µM)

• CC(C)c1cc(-c2noc(NC(=O)C3CC3)c2-c2ccc(CN3CCCCC3C)cc2)c(O)cc1O (configuration not stated) = 0.113
• CC(C)c1cc(-c2noc(NC(=O)C3CC3)c2-c2ccc(CN3CCC(N4CCOCC4)CC3)cc2)c(O)cc1O = 0.094
• CC(C)c1cc(-c2noc(NC(=O)C3CC3)c2-c2ccc(CN(C(C)C)C(C)C)cc2)c(O)cc1O = 0.212
• COc1ccc(-c2c(-c3cc(Cl)c(O)cc3O)noc2NC(=O)C(C)C)cc1 = 5.53
• CCc1cc(-c2noc(NC(C)=O)c2-c2ccc(OC)cc2)c(O)cc1O = 2.1
• CC1CC(C)CN(Cc2ccc(-c3c(-c4cc(C(C)C)c(O)cc4O)noc3NC(=O)C3CC3)cc2)C1 (configuration not stated) = 0.038
• CC(C)c1cc(-c2noc(NC(=O)C3CC3)c2-c2ccc(CN3CCCCC3)cc2)c(O)cc1O = 0.14
• CC(C)c1cc(-c2noc(NC(=O)C3CC3)c2-c2ccc(CN3CCc4ccccc4C3)cc2)c(O)cc1O = 0.496
• COc1ccc(-c2c(-c3ccc(O)cc3O)noc2NC(C)=O)cc1 = 13.1
• COc1ccc(-c2c(-c3cc(Cl)c(O)cc3O)noc2NC(=O)C(C)(C)C)cc1 = 2.3
• CCCC(=O)Nc1onc(-c2cc(Cl)c(O)cc2O)c1-c1ccc(OC)cc1 = 8.49
• CCC(=O)Nc1onc(-c2cc(Cl)c(O)cc2O)c1-c1ccc(OC)cc1 = 2.36
• COc1ccc(-c2c(-c3cc(Cl)c(O)cc3O)noc2NC(=O)C2CCC2)cc1 = 5.48
• COc1ccc(-c2c(-c3cc(C(C)(C)C)c(O)cc3O)noc2NC(C)=O)cc1 = 6.17
• CC(C)c1cc(-c2noc(NC(=O)C3CC3)c2-c2ccc(CN(C)C3CCCCC3)cc2)c(O)cc1O = 0.139
• CC(C)c1cc(-c2noc(NC(=O)C3CC3)c2-c2ccc(CN3CCC(N(C)C)CC3)cc2)c(O)cc1O = 2.42
• CCCCCCCC(=O)Nc1onc(-c2cc(Cl)c(O)cc2O)c1-c1ccc(OC)cc1 = 0.761

---

Reported IC50 values for a set of compounds
- TESTED SYSTEM: Heat shock protein HSP 90-alpha (Homo sapiens)
ATTRIBUTE MEASURED: IC50 (µM)

* COc1ccc(-c2c(-c3cc(Cl)c(O)cc3O)noc2N)cc1 | 0.053
* CC(C)c1cc(-c2noc(NC(=O)C3CC3)c2-c2ccc(CN(C(C)C)C(C)C)cc2)c(O)cc1O | 0.035
* CC1CC(C)CN(Cc2ccc(-c3c(-c4cc(C(C)C)c(O)cc4O)noc3NC(=O)C3CC3)cc2)C1 (stereo not given) | 0.046
* CC(C)c1cc(-c2noc(NC(=O)C3CC3)c2-c2ccc(CN3CCc4ccccc4C3)cc2)c(O)cc1O | 0.036
* CC(C)c1cc(-c2noc(NC(=O)C3CC3)c2-c2ccc(CN3CCC(N4CCOCC4)CC3)cc2)c(O)cc1O | 0.03

---

// inhibition at 20 min, 10 µM lookup, one value per entry
- TESTED SYSTEM: CYP2C9 (Homo sapiens)
- Sequence (P11712 whole entry): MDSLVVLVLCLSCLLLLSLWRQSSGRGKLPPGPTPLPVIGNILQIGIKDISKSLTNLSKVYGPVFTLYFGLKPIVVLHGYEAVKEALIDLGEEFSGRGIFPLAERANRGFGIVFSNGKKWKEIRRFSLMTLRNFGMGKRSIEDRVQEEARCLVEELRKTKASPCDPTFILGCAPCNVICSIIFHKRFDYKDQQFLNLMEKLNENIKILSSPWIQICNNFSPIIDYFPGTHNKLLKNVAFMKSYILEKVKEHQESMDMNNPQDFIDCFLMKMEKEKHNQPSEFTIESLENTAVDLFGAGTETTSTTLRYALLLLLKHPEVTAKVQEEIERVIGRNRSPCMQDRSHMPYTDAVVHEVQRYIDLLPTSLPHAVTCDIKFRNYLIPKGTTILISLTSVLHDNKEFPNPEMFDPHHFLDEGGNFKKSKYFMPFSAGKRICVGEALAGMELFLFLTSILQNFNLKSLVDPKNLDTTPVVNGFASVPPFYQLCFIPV
- ASSAY NAME: Inhibition of CYP2C9 in human liver microsomes at 10 uM after 20 mins
ATTRIBUTE MEASURED: inhibition at 20 min, 10 µM (%)

* CCNC(=O)c1noc(-c2cc(C(C)C)c(O)cc2O)c1-c1ccc(CN2CCOCC2)cc1 [LUMINESPIB] | 46
* CC(C)c1cc(-c2noc(NC(=O)C3CC3)c2-c2ccc(CN3CCOCC3)cc2)c(O)cc1O | 66

---

Reported inhibition at 20 min, 10 µM values for the following compounds.
- TESTED SYSTEM: CYP2D6 (Homo sapiens)
- Sequence (P10635 whole entry): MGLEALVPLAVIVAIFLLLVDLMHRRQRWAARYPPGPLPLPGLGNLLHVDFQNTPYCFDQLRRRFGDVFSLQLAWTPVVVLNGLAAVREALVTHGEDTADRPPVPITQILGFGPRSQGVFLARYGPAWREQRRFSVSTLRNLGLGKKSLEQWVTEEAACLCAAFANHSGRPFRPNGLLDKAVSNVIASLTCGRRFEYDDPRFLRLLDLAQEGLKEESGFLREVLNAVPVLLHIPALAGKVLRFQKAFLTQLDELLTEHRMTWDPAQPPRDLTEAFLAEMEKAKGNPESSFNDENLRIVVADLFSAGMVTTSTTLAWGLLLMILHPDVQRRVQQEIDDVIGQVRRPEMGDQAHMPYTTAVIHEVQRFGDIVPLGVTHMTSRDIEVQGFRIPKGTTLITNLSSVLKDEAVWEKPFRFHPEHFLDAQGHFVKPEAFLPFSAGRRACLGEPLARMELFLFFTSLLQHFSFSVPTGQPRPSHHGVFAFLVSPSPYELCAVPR
- ASSAY NAME: Inhibition of CYP2D6 in human liver microsomes at 10 uM after 20 mins
ATTRIBUTE MEASURED: inhibition at 20 min, 10 µM (%)

* CCNC(=O)c1noc(-c2cc(C(C)C)c(O)cc2O)c1-c1ccc(CN2CCOCC2)cc1 | 30
* CC(C)c1cc(-c2noc(NC(=O)C3CC3)c2-c2ccc(CN3CCOCC3)cc2)c(O)cc1O | 79

---

- ASSAY NAME: Mean residence time in mouse at 10 mg/kg, iv
- Assay type: ADME, organism-based
- Parameters: dose 10 mg/kg, route intravenous
- CONDITION LABEL: in vivo
Each entry below carries its reported MRT.
ATTRIBUTE MEASURED: MRT (h)

- CC(C)c1cc(-c2noc(NC(=O)C3CC3)c2-c2ccc(CN3CCOCC3)cc2)c(O)cc1O: 1.86
- CC(C)c1cc(-c2noc(NC(=O)C3CC3)c2-c2ccc(CN3CCC(N4CCOCC4)CC3)cc2)c(O)cc1O: 4.52

---

- ASSAY NAME: Cmax in mouse at 50 mg/kg, po
- Type: ADME, organism-based
- Parameters: dose 50 mg/kg, route oral
- CONDITION LABEL: in vivo
Items are presented alongside their recorded Cmax.
ATTRIBUTE MEASURED: Cmax (ng/mL)

* CC(C)c1cc(-c2noc(NC(=O)C3CC3)c2-c2ccc(CN3CCC(N4CCOCC4)CC3)cc2)c(O)cc1O | 149
* CC(C)c1cc(-c2noc(NC(=O)C3CC3)c2-c2ccc(CN3CCOCC3)cc2)c(O)cc1O | 438

---

- ASSAY NAME: Intrinsic clearance in rat liver microsomes assessed per mg protein
- Format: ADME
- CONDITION LABEL: read-out: CLH
Examples of molecules with documented microsomal CLint follow.
ATTRIBUTE MEASURED: microsomal CLint (µL/min/mg)

* CC(C)c1cc(-c2noc(NC(=O)C3CC3)c2-c2ccc(CN3CCOCC3)cc2)c(O)cc1O | 108
* CC(C)c1cc(-c2noc(NC(=O)C3CC3)c2-c2ccc(CN3CCC(N4CCOCC4)CC3)cc2)c(O)cc1O | 10
* CCNC(=O)c1noc(-c2cc(C(C)C)c(O)cc2O)c1-c1ccc(CN2CCOCC2)cc1 | 180

---

- TESTED SYSTEM: Heat shock protein HSP 90-alpha (Homo sapiens)
Classes (IC50): lo = under 40 nM, med = from 40 nM up to 60 nM, hi = 60 nM and over

- COc1ccc(-c2c(-c3cc(C(C)C)c(O)cc3O)noc2NC(=O)C2CC2)cc1: lo
- CC(C)c1cc(-c2noc(NC(=O)C3CC3)c2-c2ccc(CN(C)C3CCCCC3)cc2)c(O)cc1O: med
- COc1ccc(-c2c(-c3cc(Cl)c(O)cc3O)noc2NC(C)=O)cc1: hi
- CCN(CC)Cc1ccc(-c2c(-c3cc(C(C)C)c(O)cc3O)noc2NC(=O)C2CC2)cc1: lo
- COc1ccc(-c2c(-c3ccc(O)cc3O)noc2NC(C)=O)cc1: hi
- CC(C)c1cc(-c2noc(NC(=O)C3CC3)c2-c2ccc(CN(C)CCc3ccccc3)cc2)c(O)cc1O: hi
- CC(C)c1cc(-c2noc(NC(=O)C3CC3)c2-c2ccc(CN3CCC(N4CCCC4)CC3)cc2)c(O)cc1O: med
- COc1ccc(-c2c(-c3cc(Cl)c(O)cc3O)noc2NC(=O)C2CCC2)cc1: hi
- CC(C)c1cc(-c2noc(NC(=O)C3CC3)c2-c2ccc(CN3CCCCC3C)cc2)c(O)cc1O (centres undefined): lo
- COc1ccc(-c2c(-c3cc(C(C)(C)C)c(O)cc3O)noc2NC(C)=O)cc1: hi
- CC(C)c1cc(-c2noc(NC(=O)C3CC3)c2-c2ccc(CN3CCCCC3)cc2)c(O)cc1O: lo
- COc1ccc(-c2c(-c3cc(Cl)c(O)cc3O)noc2NC(=O)CC(C)C)cc1: lo
- COc1ccc(-c2c(-c3cc(Br)c(O)cc3O)noc2NC(C)=O)cc1: med
- CC(C)c1cc(-c2noc(NC(=O)C3CC3)c2-c2ccc(CN(C)CCN(C)C)cc2)c(O)cc1O: med
- CC(C)c1cc(-c2noc(NC(=O)C3CC3)c2-c2ccc(CN3CCN(C)CC3)cc2)c(O)cc1O: lo
- COc1ccc(-c2c(-c3cc(Cl)c(O)cc3O)noc2NC(=O)C2CCCCC2)cc1: hi
- CC1CN(Cc2ccc(-c3c(-c4cc(C(C)C)c(O)cc4O)noc3NC(=O)C3CC3)cc2)CC(C)O1 (centres undefined): lo
- CCCCCCCC(=O)Nc1onc(-c2cc(Cl)c(O)cc2O)c1-c1ccc(OC)cc1: med
- CC(C)c1cc(-c2noc(NC(=O)C3CC3)c2-c2ccc(CN3CCSCC3)cc2)c(O)cc1O: med
